Reported pEC50 values follow for various compounds
TESTED TARGET: hAT1R (Homo sapiens, UniProt P30556)
Sequence (P30556 whole entry): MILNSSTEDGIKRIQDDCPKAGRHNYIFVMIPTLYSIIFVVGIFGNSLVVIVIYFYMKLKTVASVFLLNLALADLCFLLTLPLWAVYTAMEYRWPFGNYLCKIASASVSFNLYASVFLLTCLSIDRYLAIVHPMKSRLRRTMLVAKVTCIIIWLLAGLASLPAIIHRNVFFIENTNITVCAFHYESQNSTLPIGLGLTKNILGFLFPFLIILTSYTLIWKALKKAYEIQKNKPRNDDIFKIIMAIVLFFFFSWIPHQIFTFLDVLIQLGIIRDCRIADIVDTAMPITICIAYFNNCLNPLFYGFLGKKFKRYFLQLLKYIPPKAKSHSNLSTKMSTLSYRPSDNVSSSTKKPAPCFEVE
ASSAY NAME: cell-based
CONDITION DESCRIPTION: section of the 42nd table ending at r951, example numbering restarts after the DiscoveRx section; read-out: β-arrestin2 EC50
pEC50: −log10 of the molar value.
PARAMETER MEASURED: pEC50

RECORD SMILES: CCOc1nc2cccc(C(=O)O)c2n1Cc1ccc(-c2cc(OC3CCCCC3)ccc2-c2nn[nH]n2)cc1
NUMERIC READOUT: 7.58
--
RECORD SMILES: CCOc1nc2cccc(C(=O)O)c2n1Cc1ccc(-c2cc(Oc3ccccc3)ccc2-c2nn[nH]n2)cc1
NUMERIC READOUT: 7.78
--
RECORD SMILES: CCOc1nc2cccc(C(=O)O)c2n1Cc1ccc(-c2cc(-n3cc(C)cn3)ccc2-c2nn[nH]n2)cc1
NUMERIC READOUT: 8.24
--
RECORD SMILES: CCc1nc2c(C)cc(C)nc2n1Cc1ccc(-c2cc(Oc3ccccc3F)ccc2-c2noc(=O)[nH]2)cc1
NUMERIC READOUT: 7.80
--
RECORD SMILES: CCc1nc2c(C)cc(C)nc2n1Cc1ccc(-c2cc(-n3ncc4ccccc43)ccc2-c2nnn[nH]2)cc1
NUMERIC READOUT: 8.39
--
RECORD SMILES: CCOc1nc2cccc(C(=O)O)c2n1Cc1ccc(-c2cc(-c3cc(OC)ccn3)ccc2-c2nn[nH]n2)cc1
NUMERIC READOUT: 7.96
--
RECORD SMILES: CCCCc1nc(Cl)c(C(=O)O)n1Cc1ccc(-c2cc(-c3c[nH]c4ccccc34)ccc2-c2nn[nH]n2)cc1
NUMERIC READOUT: 7.96
--
RECORD SMILES: CCOc1nc2cccc(C(=O)O)c2n1Cc1ccc(-c2cc(-n3ncc4ccccc43)ccc2-c2nn[nH]n2)cc1
NUMERIC READOUT: 8.44
--
RECORD SMILES: CCCCC1=NC2(CCCC2)C(=O)N1Cc1ccc(-c2cc(Oc3cc(C)ccn3)ccc2-c2nn[nH]n2)cc1
NUMERIC READOUT: 6.74
--
RECORD SMILES: CCc1nc2c(C)cc(C)nc2n1Cc1ccc(-c2cc(-n3cc(C4CC4)nn3)ccc2-c2nnn[nH]2)cc1
NUMERIC READOUT: 6.73
--
RECORD SMILES: CCc1nc2c(C)cc(C)nc2n1Cc1ccc(-c2cc(-n3cc(C4CCCC4)nn3)ccc2-c2nnn[nH]2)cc1
NUMERIC READOUT: 6.85
--
RECORD SMILES: CCc1nc2c(C)cc(C)nc2n1Cc1ccc(-c2cc(-c3ccccc3)ccc2-c2n[nH]c(=S)o2)cc1
NUMERIC READOUT: 6.04
--
RECORD SMILES: CCCc1nc(CC)c(C(N)=O)n1Cc1ccc(-c2cc(-c3ccccc3)ccc2-c2nn[nH]n2)c(C)c1
NUMERIC READOUT: 7.30
--
RECORD SMILES: CCc1nc2c(C)cc(C)nc2n1Cc1ccc(-c2cc(-c3ccc(CO)cc3)ccc2C(=O)O)cc1
NUMERIC READOUT: 6.86
--
RECORD SMILES: CCOc1nc2cccc(C(=O)O)c2n1Cc1ccc(-c2cc(Oc3ccccc3F)ccc2-c2nn[nH]n2)cc1
NUMERIC READOUT: 8.23

---

TESTED TARGET: hAT1R (Homo sapiens, UniProt P30556)
ASSAY NAME: BRET β-arrestin2 biosensor assay, higher receptor expression (hAT1R 5 ng/well), HEK293 cells
Assay type: cell-based
CONDITION DESCRIPTION: High AT1R Expression
Reported values of EC50 for individual entries

MOLECULE: CCc1nc2c(C)cc(C)nc2n1Cc1ccc(-c2cc(-c3cn(CC)nn3)ccc2-c2nnn[nH]2)cc1 [Example 234]
RESULT UNIT: nM
EC50: 3.4
--
MOLECULE: CCc1nc2c(C)cc(C)nc2n1Cc1ccc(-c2cc(-c3ccccn3)ccc2-c2nn[nH]n2)cc1 [Example 30]
RESULT UNIT: nM
EC50: 5.6
--
MOLECULE: CCc1nc2c(C)cc(C)nc2n1Cc1ccc(-c2cc(-c3cncc(C)c3)ccc2-c2nn[nH]n2)cc1 [Example 60]
RESULT UNIT: nM
EC50: 19.6
--
MOLECULE: CCc1nc2c(C)cc(C)nc2n1Cc1ccc(-c2cc(-c3ccc(CO)cc3)ccc2C(=O)O)cc1 [Example 183]
RESULT UNIT: nM
EC50: 62.9
--
MOLECULE: CCCCC1=NC2(CCCC2)C(=O)N1Cc1ccc(-c2cc(-c3ccc(CO)cc3)ccc2-c2nn[nH]n2)cc1 [Example 126]
RESULT UNIT: nM
EC50: 47.1
--
MOLECULE: CCCCC1=NC2(CCCC2)C(=O)N1Cc1ccc(-c2cc(-c3ccccc3)ccc2-c2nn[nH]n2)cc1 [Example 33]
RESULT UNIT: nM
EC50: 16.5
--
MOLECULE: CCCCC1=NC2(CCCC2)C(=O)N1Cc1ccc(-c2cc(-c3ccc(C)cc3)ccc2-c2nn[nH]n2)cc1 [Example 122]
RESULT UNIT: nM
EC50: 17.5
--
MOLECULE: CCCCC(=O)N(Cc1ccc(-c2cc(-c3ccccc3)ccc2-c2nn[nH]n2)cc1)[C@]1(C(=O)O)CC[C@H](O)CC1 [Example 284]
RESULT UNIT: nM
EC50: 33
--
MOLECULE: CCc1nc2c(C)cc(C)nc2n1Cc1ccc(-c2cc(N3C(=O)c4ccccc4C3=O)ccc2-c2nn[nH]n2)cc1 [Example 27]
RESULT UNIT: nM
EC50: 89.5
--
MOLECULE: CCCCOC(=O)NS(=O)(=O)c1sc(-c2ccccc2C(F)(F)F)cc1-c1ccc(Cn2c(CC)nc3c(C)cc(C)nc32)cc1 [Example 45]
RESULT UNIT: nM
EC50: 34.7
--
MOLECULE: CCCCC(=O)N(Cc1ccc(-c2cc(-c3ccccc3)ccc2-c2noc(=O)[nH]2)nc1)[C@H](C(=O)O)C(C)C [Example 434, 2,2,2-trifluoroacetate]
RESULT UNIT: nM
EC50: 316
--
MOLECULE: CCCCC1=NC2(CCCC2)C(=O)N1Cc1ccc(-c2cc(-c3cc(C)ccn3)ccc2-c2nn[nH]n2)cc1 [Example 139]
RESULT UNIT: nM
EC50: 11.2
--
MOLECULE: CCOc1nc2cccc(C(=O)O)c2n1Cc1ccc(-c2cc(-c3cccnc3OC)ccc2C(=O)O)cc1 [Example 318]
RESULT UNIT: nM
EC50: 132
--
MOLECULE: CCCCc1ncc(C(=O)NC)n1Cc1ccc(-c2cc(-c3ccccc3)ccc2-c2nn[nH]n2)cc1 [Example 382]
RESULT UNIT: nM
EC50: 47.1

---

TESTED TARGET: hAT1R (Homo sapiens, UniProt P30556)
ASSAY NAME: BRET β-arrestin2 biosensor assay, higher receptor expression (hAT1R 5 ng/well), HEK293 cells
Format: cell-based
CONDITION DESCRIPTION: High AT1R Expression
Listing of entries alongside the reported EC50.

COMPOUND: CCc1nc2c(C)cc(C)nc2n1Cc1ncc(-c2cc(-c3cccc(C)c3)ccc2C(=O)O)cn1 [Example 198]
EC50 [nM]: 428

COMPOUND: CCCCc1ncc(C(=O)NC(C)(C)COC)n1Cc1ccc(-c2cc(-c3ccccc3)ccc2-c2nn[nH]n2)cc1 [Example 361]
EC50 [nM]: 128

COMPOUND: CCCCc1ncc(C(=O)NCc2cnn(C)c2)n1Cc1ccc(-c2cc(-c3ccccc3)ccc2-c2nn[nH]n2)cc1 [Example 346]
EC50 [nM]: 7.1

COMPOUND: CCCCC(=O)N(Cc1ccc(-c2cc(-c3ccccc3)ccc2-c2nn[nH]n2)cc1)C1(C(=O)O)CCC(C)(C)CC1 [Example 275]
EC50 [nM]: 21.5

COMPOUND: CCc1nc2c(C)cc(C)nc2n1Cc1ccc(-c2cc(Oc3cncc(C)c3)ccc2-c2nn[nH]n2)cc1 [Example 260]
EC50 [nM]: 7.8

COMPOUND: CCc1nc2c(C)cc(C)nc2n1Cc1ccc(-c2cc(Oc3cc(F)ccn3)ccc2-c2nn[nH]n2)cc1 [Example 254]
EC50 [nM]: 20

COMPOUND: CCc1nc2c(C)cc(C)nc2n1Cc1ccc(-c2cc(-c3cccc4cnccc34)ccc2-c2nn[nH]n2)cc1 [Example 16]
EC50 [nM]: 24.7

---

TESTED TARGET: hAT1R (Homo sapiens, UniProt P30556)
ASSAY NAME: BRET β-arrestin2 biosensor assay, higher receptor expression (hAT1R 5 ng/well), HEK293 cells
Format: cell-based
CONDITION DESCRIPTION: High AT1R Expression
pEC50: −log10 of the molar value.

COMPOUND: CCCCc1ncc(C(=O)NC2COC2)n1Cc1ccc(-c2cc(-c3ccccc3)ccc2-c2nn[nH]n2)cc1
pEC50: 7.67
//
COMPOUND: CCCCC1=NC2(CCCC2)C(=O)N1Cc1ccc(-c2cc(N3CCCC(F)(F)C3)ccc2-c2noc(=O)[nH]2)cc1
pEC50: 6.37
//
COMPOUND: CCCCC(=O)N(Cc1ccc(-c2cc(Nc3ccccc3)ccc2-c2nn[nH]n2)cc1)[C@H](C(=O)O)C(C)C
pEC50: 6.46
//
COMPOUND: CCCCc1ncc(C(=O)NCCO)n1Cc1ccc(-c2cc(-c3ccccc3)ccc2-c2nn[nH]n2)cc1
pEC50: 7.46
//
COMPOUND: CCCCc1ncc(C(=O)Nc2ccc(C)nn2)n1Cc1ccc(-c2cc(-c3ccccc3)ccc2-c2nn[nH]n2)cc1
pEC50: 7.34
//
COMPOUND: CCc1nc2c(C)cc(C)nc2n1Cc1ccc(-c2cc(-c3ccccc3)ccc2-c2nnn[nH]2)nc1
pEC50: 7.59
//
COMPOUND: CCCCC(=O)N(Cc1ccc(-c2cc(-c3ccccc3)ccc2-c2nn[nH]n2)cc1)[C@H](C(=O)O)C(C)C
pEC50: 7.30
//
COMPOUND: CCc1nc2c(C)cc(C)nc2n1Cc1ccc(-c2cc(OC3CCCCC3)ccc2-c2nnn[nH]2)cc1
pEC50: 8.14
//
COMPOUND: CCc1nc2c(C)cc(C)nc2n1Cc1ccc(-c2cc(C3=CCCCC3)ccc2-c2nn[nH]n2)cc1
pEC50: 8.15
//
COMPOUND: CCCCc1ncc(C(=O)NCC(C)C)n1Cc1ccc(-c2cc(-c3ccccc3)ccc2-c2nn[nH]n2)cc1
pEC50: 7.49
//
COMPOUND: CCc1nc2c(C)cc(C)nc2n1Cc1ccc(-c2cc(-n3ccc4cc(F)ccc43)ccc2-c2nn[nH]n2)cc1
pEC50: 7.98
//
COMPOUND: CCc1nc2c(C)cc(C)nc2n1Cc1ccc(-c2cc(-c3cccn3C)ccc2-c2nn[nH]n2)cc1
pEC50: 7.47
//
COMPOUND: CCCCC(=O)N(Cc1ccc(-c2cc(-c3cnn(C)c3)ccc2-c2nn[nH]n2)cc1)[C@H](C(=O)O)C(C)C
pEC50: 6.52
//
COMPOUND: CCCCC1=NC2(CCOC2)C(=O)N1Cc1ccc(-c2cc(-c3ccccc3)ccc2-c2nnn[nH]2)cc1 (single isomer, unassigned) [Example 146]
pEC50: 7.42
//
COMPOUND: CCCCc1ncc(C(=O)Nc2ccncc2)n1Cc1ccc(-c2cc(-c3ccccc3)ccc2-c2nn[nH]n2)cc1
pEC50: 7.18
//
COMPOUND: CCCCc1nc(Cl)c(C(=O)N(C)C)n1Cc1ccc(-c2cc(-c3ccccc3)ccc2-c2nn[nH]n2)cc1
pEC50: 6.08
//
COMPOUND: CCCCC1=NC2(CCCC2)C(=O)N1Cc1ccc(-c2cc(-c3cccc(F)c3F)ccc2-c2nn[nH]n2)cc1
pEC50: 7.54
//
COMPOUND: CCCCC1=NC2(CCCC2)C(=O)N1Cc1ccc(-c2cc(-c3ccc(C(=O)NC)cc3)ccc2-c2nn[nH]n2)cc1
pEC50: 6.86
//
COMPOUND: CCc1nc2c(C)cc(C)nc2n1Cc1ccc(-c2cc(-c3cccc(OC)c3)ccc2-c2nn[nH]n2)cc1
pEC50: 8.37
//
COMPOUND: CCCCOC(=O)NS(=O)(=O)c1sc(-c2cccnc2OC)cc1-c1ccc(Cn2c(CC)nc3c(C)cc(C)nc32)cc1
pEC50: 7.83
//
COMPOUND: CCCCc1ncc(C(=O)NC2CCCCC2)n1Cc1ccc(-c2cc(-c3ccccc3)ccc2-c2nn[nH]n2)cc1
pEC50: 7.71
//
COMPOUND: CCCCc1ncc(C(=O)NCC(C)(C)C)n1Cc1ccc(-c2cc(-c3ccccc3)ccc2-c2nn[nH]n2)cc1
pEC50: 7.41
//
COMPOUND: CCc1nc2c(C)cc(C)nc2n1Cc1ccc(-c2cc(Oc3cncc(OC)c3)ccc2-c2nn[nH]n2)cc1
pEC50: 7.40
//
COMPOUND: CCc1nc2c(C)cc(C)nc2n1Cc1ccc(-c2cc(N(C)c3ccccc3)ccc2-c2nn[nH]n2)cc1
pEC50: 7.68
//
COMPOUND: CCCCc1ncc(C(=O)NCc2cccnn2)n1Cc1ccc(-c2cc(-c3ccccc3)ccc2-c2nn[nH]n2)cc1
pEC50: 7.63
//
COMPOUND: CCc1nc2c(C)cc(C)nc2n1Cc1ccc(-c2cc(-c3ccccc3OC(F)(F)F)ccc2-c2nn[nH]n2)cc1
pEC50: 8.14
//
COMPOUND: CCCCC1=NC2(CCOC2)C(=O)N1Cc1ccc(-c2cc(-c3ccccc3F)ccc2-c2nnn[nH]2)cc1 (single isomer, unassigned) [Example 148]
pEC50: 7.04
//
COMPOUND: CCc1nc2c(C)cc(C)nc2n1Cc1ccc(-c2cc(-c3nccs3)ccc2-c2nn[nH]n2)cc1
pEC50: 7.31

Where these numbers come from: patent US12037324B2
